- Test system: SK-OV-3 ovarian
- assay-name: NCI tumour cell line growth inhibition, 48 h
readout-label: TGI

Asked: If you can, please state the reported TGI value of Nc1nc(N)c2cc(CNc3ccc(C(=O)NC(CC(=O)O)C(=O)O)c(Cl)c3)ccc2n1 (stereo not given) .
Given back: > 500 µM

Asked: If you can, please state the reported TGI value of `CCOC(=O)C1(C(=O)OCC)CCCN1C(=O)[C@H](CNC(=O)OC(C)(C)C)NC(=O)OCc1ccccc1` .
Given back: > 100 µM

Asked: If you can, please state the reported TGI value of CC(O)CC(O)(C(F)(F)F)C(F)(F)F (stereo not given) .
Given back: > 10 µM

Asked: If you can, please state the reported TGI value of O=C1CCCc2cc3c(cc21)CC1(C3)Cc2ccc3c(c2C1)C(=O)CCC3 (stereo not given) .
Given back: > 100 µM

Asked: If you can, please state the reported TGI value of `CCCCC/C(C=O)=C\c1ccccc1` .
Given back: > 100 µM
